- systemTested: T1, human GIP receptor (human, UniProt P48546 22-466)
- T1 sequence (looked up): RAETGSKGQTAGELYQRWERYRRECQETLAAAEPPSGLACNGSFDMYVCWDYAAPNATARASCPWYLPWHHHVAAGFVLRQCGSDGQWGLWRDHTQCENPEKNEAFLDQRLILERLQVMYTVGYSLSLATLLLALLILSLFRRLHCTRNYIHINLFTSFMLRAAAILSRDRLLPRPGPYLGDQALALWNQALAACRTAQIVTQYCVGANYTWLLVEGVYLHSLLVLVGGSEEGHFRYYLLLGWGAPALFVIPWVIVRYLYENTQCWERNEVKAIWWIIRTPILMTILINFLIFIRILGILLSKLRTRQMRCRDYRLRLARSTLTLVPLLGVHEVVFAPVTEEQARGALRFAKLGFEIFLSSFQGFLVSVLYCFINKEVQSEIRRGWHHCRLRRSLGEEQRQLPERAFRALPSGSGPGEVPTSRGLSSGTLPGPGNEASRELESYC
- assayNotes: cell-based or functional assay
Starred links: 1 amine or outer side, 2 acyl side, 3 side chain; linkers in the order of their positions; H or OH if unused. Non-standard residues stand in square brackets, D forms with d. Groups on a side chain read outwards from the residue. No end group written: not given here. *: point of attachment. C18 diacid = O=C(O)CCCCCCCCCCCCCCCCC(=O)*; γGlu = O=C(O)[C@H](CCC(=O)[*:2])N[*:1]; Aib = CC(C)(N)C(=O)O; Ahx = NCCCCCC(=O)O
Attribute: EC50 hGIPR 0.5% hP (CreLuc)
State the result as a value with its unit after it.

Consider the reported EC50 hGIPR 0.5% hP (CreLuc) for these binders:
binder	measuredAttribute	result
Y[Aib]EGTFTSDYSI[Aib]LEKQAQ[Aib]AFVEWLIK([γGlu-γGlu-γGlu-γGlu-C18 diacid])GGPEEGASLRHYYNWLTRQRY-NH2 (also: TFA salt) [Compound 272]	EC50 hGIPR 0.5% hP (CreLuc)	0.24 nM
Y[Aib]EGTFTSDYSI[Aib]LEKQAQ[Aib]EFVEWLIK([Ahx-γGlu-γGlu-γGlu-γGlu-γGlu-γGlu-C18 diacid])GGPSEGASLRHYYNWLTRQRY-NH2 (also: TFA salt) [Compound 279]	EC50 hGIPR 0.5% hP (CreLuc)	0.71 nM
Y[Aib]EGTFTSDYSI[Aib]LEKQAQ[Aib]AFVEWLIK([Ahx-γGlu-γGlu-γGlu-γGlu-γGlu-γGlu-C18 diacid])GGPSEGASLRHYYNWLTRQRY-NH2 (also: TFA salt) [Compound 303]	EC50 hGIPR 0.5% hP (CreLuc)	0.36 nM

Exercise: Param item = Y[Aib]EGTFTSDYSI[Aib]LEKQAQ[Aib]AFVEWLIK([γGlu-γGlu-γGlu-γGlu-C18 diacid])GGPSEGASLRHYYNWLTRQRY-NH2 (also: TFA salt) [Compound 294] ; retrieve measured EC50 hGIPR 0.5% hP (CreLuc).
Solution: 0.21 nM

Data credit: patent US20240247080A1
